Where do these numbers come from? They come from BindingDB's records for doi:10.1016/j.bmc.2006.07.028.

Form field: pKd (one value per entry).
target.or.system: Macrophage metalloelastase (Homo sapiens)
run.description: Dissociation Constants (KD) Measurements
particulars: pH 7.2; 25 °C
pKd: −log10 of the molar value.

Here are 3 molecules together with their reported answers.
chemical_structure=O=C(O)[C@@H]1O[C@H]2CN(Cc3ccccc3)C[C@@H]1O2 measure=pKd experimental_result="< 2.00"
chemical_structure=O=C(NO)[C@@H]1O[C@H]2CN(Cc3ccccc3)C(=O)[C@@H]1O2 measure=pKd experimental_result="< 2.00"
chemical_structure=CCOC(=O)C1CCN(C(=O)NO)CC1 measure=pKd experimental_result=2.47

Please look at the following molecule next.
Task item: Identify pKd associated with the molecule `O=C(O)[C@@H]1O[C@H]2CN(Cc3ccccc3)C(=O)[C@@H]1O2`
Reply: < 2.00

* * *

target.or.system: Neutrophil collagenase (Homo sapiens, UniProt P22894)
Sequence (P22894 whole entry): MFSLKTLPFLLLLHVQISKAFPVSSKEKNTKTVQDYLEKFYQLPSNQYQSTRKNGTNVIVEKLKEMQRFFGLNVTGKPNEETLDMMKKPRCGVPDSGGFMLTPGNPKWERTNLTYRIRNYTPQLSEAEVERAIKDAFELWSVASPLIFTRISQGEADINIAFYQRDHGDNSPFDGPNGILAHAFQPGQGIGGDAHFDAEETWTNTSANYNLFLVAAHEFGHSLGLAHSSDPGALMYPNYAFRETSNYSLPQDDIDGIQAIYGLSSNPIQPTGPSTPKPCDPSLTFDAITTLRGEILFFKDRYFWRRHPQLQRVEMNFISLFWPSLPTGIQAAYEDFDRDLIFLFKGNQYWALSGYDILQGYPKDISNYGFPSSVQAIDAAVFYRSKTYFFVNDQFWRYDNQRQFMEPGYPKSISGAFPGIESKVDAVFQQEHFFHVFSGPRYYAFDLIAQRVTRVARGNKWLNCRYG
run.description: Inhibition Potency Measurements
particulars: pH 7; 25 °C
measure: IC50
Express your answer as a number followed by its unit.

Task item: Identify IC50 associated with the molecule `O=C(NCc1ccc(-c2ccccc2)cc1)[C@@H]1O[C@H]2CN(C(=O)NO)C[C@@H]1O2`
Reply: 513 µM

* * *

target.or.system: UniProt P39900
run.description: Dissociation Constants (KD) Measurements and Enzyme Inhibition Assay (IC50)
particulars: pH 7; 25 °C
measure: pIC50
Schema: pIC50 number; meaning minus log10 of the concentration expressed in molar units.

Task item: Identify pIC50 associated with the compound `O=C(O)[C@@H]1O[C@H]2CN(Cc3ccc(-c4ccccc4)cc3)C[C@@H]1O2`
Reply: 3.08

* * *

target.or.system: Stromelysin-2 (Homo sapiens)
Sequence (P09238 whole entry): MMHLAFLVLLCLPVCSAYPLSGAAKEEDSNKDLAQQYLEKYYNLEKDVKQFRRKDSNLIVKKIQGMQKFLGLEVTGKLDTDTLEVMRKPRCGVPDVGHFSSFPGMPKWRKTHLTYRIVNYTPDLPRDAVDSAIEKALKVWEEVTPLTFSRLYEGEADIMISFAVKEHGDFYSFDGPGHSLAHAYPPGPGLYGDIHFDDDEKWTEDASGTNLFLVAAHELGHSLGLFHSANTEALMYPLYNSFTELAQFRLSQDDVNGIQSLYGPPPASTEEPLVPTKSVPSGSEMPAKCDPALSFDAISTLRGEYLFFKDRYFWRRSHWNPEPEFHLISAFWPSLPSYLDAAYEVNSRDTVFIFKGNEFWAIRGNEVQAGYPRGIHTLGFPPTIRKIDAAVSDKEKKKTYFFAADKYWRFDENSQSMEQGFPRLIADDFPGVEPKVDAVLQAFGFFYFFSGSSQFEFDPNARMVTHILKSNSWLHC
measure: pIC50
Schema: pIC50 number; meaning minus log10 of the concentration expressed in molar units.

Task item: Lab note: Stromelysin-2 (Homo sapiens) assay, enter pIC50 for `O=C(NCc1ccc(-c2ccccc2)cc1)[C@@H]1O[C@H]2CN(C(=O)NO)C[C@@H]1O2` here
Reply: 3.06

* * *

target.or.system: UniProt:P03956
Sequence (P03956 whole entry): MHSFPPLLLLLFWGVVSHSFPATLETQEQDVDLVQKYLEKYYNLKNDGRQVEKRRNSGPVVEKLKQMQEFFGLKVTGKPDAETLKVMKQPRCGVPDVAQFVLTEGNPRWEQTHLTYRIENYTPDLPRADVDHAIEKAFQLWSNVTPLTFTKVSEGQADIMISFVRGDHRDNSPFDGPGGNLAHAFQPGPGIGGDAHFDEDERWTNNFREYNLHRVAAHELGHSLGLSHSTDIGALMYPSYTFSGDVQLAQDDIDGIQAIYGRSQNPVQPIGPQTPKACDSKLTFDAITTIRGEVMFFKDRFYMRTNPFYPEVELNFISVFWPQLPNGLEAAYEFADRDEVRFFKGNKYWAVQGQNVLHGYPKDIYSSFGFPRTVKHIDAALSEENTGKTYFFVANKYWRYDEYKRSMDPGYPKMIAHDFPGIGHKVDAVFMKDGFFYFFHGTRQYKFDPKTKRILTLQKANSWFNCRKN
measure: pIC50
Schema: pIC50 number; meaning minus log10 of the concentration expressed in molar units.

Task item: Lab note: UniProt:P03956 assay, enter pIC50 for `O=C(NCc1ccc(-c2ccccc2)cc1)[C@@H]1O[C@H]2CN(C(=O)NO)C[C@@H]1O2` here
Reply: 2.93

* * *

target.or.system: Matrilysin (Homo sapiens)
Sequence (P09237 whole entry): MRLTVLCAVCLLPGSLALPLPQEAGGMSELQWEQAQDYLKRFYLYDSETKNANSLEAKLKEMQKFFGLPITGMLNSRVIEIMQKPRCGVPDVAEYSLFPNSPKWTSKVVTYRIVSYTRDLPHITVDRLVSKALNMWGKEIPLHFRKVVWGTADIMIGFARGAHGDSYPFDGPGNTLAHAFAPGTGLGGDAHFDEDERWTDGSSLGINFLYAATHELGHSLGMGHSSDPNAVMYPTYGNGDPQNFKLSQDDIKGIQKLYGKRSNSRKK
measure: pIC50
Schema: pIC50 number; meaning minus log10 of the concentration expressed in molar units.

Task item: Identify pIC50 associated with the molecule `O=C(NCc1ccc(-c2ccccc2)cc1)[C@@H]1O[C@H]2CN(C(=O)NO)C[C@@H]1O2`
Reply: 2.82

* * *

target.or.system: Macrophage metalloelastase (Homo sapiens, UniProt P39900)
Sequence (P39900 whole entry): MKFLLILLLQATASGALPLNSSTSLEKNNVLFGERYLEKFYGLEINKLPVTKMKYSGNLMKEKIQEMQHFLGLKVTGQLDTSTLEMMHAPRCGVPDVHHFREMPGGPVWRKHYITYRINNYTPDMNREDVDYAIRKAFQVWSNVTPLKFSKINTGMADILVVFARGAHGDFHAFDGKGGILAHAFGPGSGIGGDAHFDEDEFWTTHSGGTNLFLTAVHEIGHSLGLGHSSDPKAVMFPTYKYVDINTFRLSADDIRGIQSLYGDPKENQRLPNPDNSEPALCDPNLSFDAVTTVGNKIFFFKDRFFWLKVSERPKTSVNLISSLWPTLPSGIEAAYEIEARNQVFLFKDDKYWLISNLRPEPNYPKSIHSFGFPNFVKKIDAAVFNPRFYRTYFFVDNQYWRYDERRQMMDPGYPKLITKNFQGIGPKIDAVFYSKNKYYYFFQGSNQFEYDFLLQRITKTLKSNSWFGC
run.description: Dissociation Constants (KD) Measurements and Enzyme Inhibition Assay (IC50)
particulars: pH 7; 25 °C
Form field: Kd (one value per entry).

chemical_structure=O=C(O)[C@@H]1O[C@H]2CN(Cc3ccc(-c4ccccc4)cc3)C(=O)[C@@H]1O2 measure=Kd experimental_result="> 1000 µM"
chemical_structure=O=C(NO)[C@@H]1O[C@H]2CN(Cc3ccc(-c4ccccc4)cc3)C(=O)[C@@H]1O2 measure=Kd experimental_result="> 500 µM"

Task item: Identify Kd associated with the compound `O=C(O)[C@@H]1O[C@H]2CN(Cc3ccc(-c4ccccc4)cc3)C[C@@H]1O2`
Reply: > 1000 µM

Task item: Identify Kd associated with the compound `O=C(NO)[C@@H]1O[C@H]2CN(Cc3ccc(-c4ccccc4)cc3)C[C@@H]1O2`
Reply: > 500 µM
